These measurements were taken from patent US20100196385A1.

system tested: T1, full length human DLL4 (human, UniProt Q9NR61 27-685)
T1 construct: whole, on cells; also called native DLL4 expressed in HEK293 cells
T1 sequence (Q9NR61 27-685): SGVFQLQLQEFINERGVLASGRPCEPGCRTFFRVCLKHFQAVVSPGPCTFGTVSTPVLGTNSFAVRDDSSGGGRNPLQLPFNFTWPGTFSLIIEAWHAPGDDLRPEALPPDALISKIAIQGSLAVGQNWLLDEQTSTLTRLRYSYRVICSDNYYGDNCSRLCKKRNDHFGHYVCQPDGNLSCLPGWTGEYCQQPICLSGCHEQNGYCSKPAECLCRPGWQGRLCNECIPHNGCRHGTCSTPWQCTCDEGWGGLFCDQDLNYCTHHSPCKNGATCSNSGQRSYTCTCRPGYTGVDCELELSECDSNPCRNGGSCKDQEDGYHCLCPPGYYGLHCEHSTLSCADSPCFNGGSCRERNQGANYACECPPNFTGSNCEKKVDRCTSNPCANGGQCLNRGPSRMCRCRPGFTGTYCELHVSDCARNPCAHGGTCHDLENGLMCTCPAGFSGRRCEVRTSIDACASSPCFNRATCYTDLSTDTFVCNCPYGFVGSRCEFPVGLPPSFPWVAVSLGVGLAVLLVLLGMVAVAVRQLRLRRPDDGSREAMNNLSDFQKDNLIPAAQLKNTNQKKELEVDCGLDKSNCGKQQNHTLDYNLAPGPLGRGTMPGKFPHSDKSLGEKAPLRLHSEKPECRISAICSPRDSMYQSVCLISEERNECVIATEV
test description: FMAT competition, supernatant vs Alexa-647 human Notch1/Fc, 293T cells with human DLL4
readout label: % inhibition n = 3 (%)
Value expressed in %; do not type the unit.

(Q) Give its % inhibition n = 3 value. Item: 3A7 (antibody, IgG4, V domains shown, Fully human; also used where no isotype is printed) VH: EVQVVESGGGLVQPGGSLRLSCEASGFTFSNYWMIWVRQAPGKGLEWVASIKEDGSEKYYVDSVKGRFTISRDNAKSSLYLQMNSLRAEDTAVYYCVRDWELRGHYYYHGMDVWGQGTTVTVSS VL: DIQMTQSPSSLSASVGDRVTITCRASLDIRNDLGWFLQKPGKAPKRLIYAASSLQSGVPSRFSGSGSGTEFTLTINSLQPEDFATYYCLQHRNYPFTFGPGTKVDFK
(A) 142

(Q) Any idea what % inhibition n = 3 was measured for 4B3 (antibody, IgG4, V domains shown, Fully human; also used where no isotype is printed) VH: QVQLVQSGAEVRKSGASVKVSCKASGYSFTTYDINWVRQATGQGLEWMGWMNPNSGYTDYAQKFQGRVTLTRNMSIDTAYMELSSLRSEDTAVYYCARAYYYDSSAYYLFDYWGQGTLVTVSS VL: DIQMTQSPSSLSASVGDRVTITCRASQGISNYLAWFQQKPGKAPKSLIYAASSLQSGVPSKFSGSGSGTDFTLTISSLQPEDFATYFCQQYISYPLTFGGGTKVEI ?
(A) 147

(Q) Quick check: % inhibition n = 3 of 1E4 (antibody, IgG2, V domains shown, Fully human; also used where no isotype is printed) VH: QVQLVESGGGVVQPGRSLRLSCAASGFTFSSYGMHWVRQAPGKGLEWVAVTWYDGSNKYYADSVKGRFTISRDNSKNTLYLQMNSLRAEDTAVYYCARENCSSTSCYYTVTTDYYGMDVWGQGTTVTVSS VL: EIVLTQSPGTLSLSPGERATLSCRASQRVSSSYLTWYQQKPGQAPRLLIYGASIRATGIPDRFSGSGSGTDFTLTITRLEPEDFAVYFCQQCYTSPITFGQGTRLDIK ?
(A) 113

(Q) Query (binder): 2H10 (antibody, IgG4, V domains shown, Fully human; used for IgG4 rows and where no isotype is printed; also called 2H10 IgG4) VH: QVQLVESGGGVVQPGRSLRLSCAASGFTFSRHGMHWVRQAPGKGLEWVAVVWFDGSNIYYADSVKGRFTISRDNSKNTLYLQMNSLRAEDTAMYYCARDSRIAAADYWGQGTLVTVSS VL: SYELTQPPSVSVSPGQTVSITCSGDKLGDKYVCWYQQKPGQSPVLVIYQESKRPSGIPERFSGSSSGNTATLTISGTQAMDEADYYCQTWDSSLVVFGGGTKLTVL ; field requested: % inhibition n = 3
(A) 124

(Q) For 17F3 (antibody, IgG2, V domains shown, Fully human; also used where no isotype is printed) VH: QVQLVQSGAEVKKPGASVKVSCKASGYTFTNYGISWVRQAPGQGLEWMGWINAYNGNTNYAQNLQGRVTMTTDTSTNTAYMELRSLRSDDTAVYYCARVAPAAFFDYWDQGTLVTVSS VL: SYELTQPPSVSVSPGQTASITCSGDKLGDKYVCWYQQKPGQSPVLVIYQDNKRPSGIPERFSGSNSGNTATLIISGTQAMDEADYYCQAWDSSTVFGGGTKLTVL , what is its reported % inhibition n = 3?
(A) 131
